Task for the reader: assign each of the following compounds its reported pEC50.
- Tested on: 786-0
- Experimental details: Inhibition of RSL3-induced ferroptosis in human 786-0 cells assessed as cell viability by assessing cell morphology incubated for 24 hrs by CellTiter-LumiTM plus luminescent cell viability assay
- Format: functional, cell-based
- Condition description: 786-0, 24 h
// field semantics: pEC50 = negative decimal log of concentration (mol/L)

Req: // returns reported pEC50 for input CCOC(=O)c1ccc(NC2CCCCC2)c(N)c1
Resp: 7.17

Req: Which pEC50 value is on record for COc1cccc(C2N(c3ccccc3)N=C(C(C)=O)N2c2ccc(N(C)C)cc2)c1OCc1ccc(F)c(F)c1 (centres undefined) ?
Resp: 7.21

Req: Entry COC(=O)c1ccc(COc2c(OC)cccc2C2N(c3ccccc3)N=C(C(C)=O)N2c2ccc(N(C)C)cc2)cc1 (centres undefined) : reported pEC50 = ?
Resp: 7.04

Req: Could you share which pEC50 value was measured for COc1ccc(COc2c(OC)cccc2C2N(c3ccccc3)N=C(C(C)=O)N2c2ccc(N(C)C)cc2)cc1 (centres undefined) ?
Resp: 7.08

###

- Experimental details: Microsomal stability in human liver microsomes assessed as hepatic extraction ratio at 1 uM by LC-MS/MS analysis
- Format: ADME, Microsome
- Condition description: read-out: ERH
Result type: hepatic extraction ratio at 1 µM

Req: Would you kindly share the measured hepatic extraction ratio at 1 µM for C[C@]12CC[C@H]3[C@@H](CCC4=CC(=O)CC[C@@]43C)[C@@H]1CC[C@@H]2O ?
Resp: 0.935
